- measured.target: NBD1 ATPase activity
- test.name: NBD1 ATPase activity (malachite green kit)
- Type: biochemical, human
pIC50: −log10 of the molar value.
recorded.endpoint: pIC50

**Q:** Look up pIC50 for this substance: α-gliadin peptide LGQQQPFPPQQPY (SEQ ID 1), induces an enterocyte stress response (P31-43 sequence of alpha-gliadin)
**A:** ~4.30
